system_name: hP2X3 WT (Homo sapiens)
Sequence (P56373 whole entry): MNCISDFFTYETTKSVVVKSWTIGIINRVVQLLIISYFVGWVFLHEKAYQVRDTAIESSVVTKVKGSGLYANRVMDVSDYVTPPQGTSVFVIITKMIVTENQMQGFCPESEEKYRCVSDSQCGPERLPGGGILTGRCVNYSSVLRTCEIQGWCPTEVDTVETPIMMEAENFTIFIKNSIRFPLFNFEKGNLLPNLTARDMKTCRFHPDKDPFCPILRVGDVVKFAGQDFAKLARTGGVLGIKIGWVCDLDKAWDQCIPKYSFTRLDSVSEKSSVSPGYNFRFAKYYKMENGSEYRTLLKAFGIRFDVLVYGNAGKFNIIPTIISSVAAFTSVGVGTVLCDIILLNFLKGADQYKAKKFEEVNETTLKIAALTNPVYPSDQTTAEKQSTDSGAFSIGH
test_description: ATP dose response (EC50), TEVC in oocytes
study_conditions: TEVC
recorded_metric: EC50 (nM)

Nc1ncnc2c1ncn2[C@@H]1O[C@H](COP(=O)(O)OP(=O)(O)OP(=O)(O)O)[C@@H](O)[C@H]1O [ATP]    800
